Assay: soluble on expression in E. coli; label from the status in PepcDB or PDB records

{"columns": ["sequence entry", "soluble on expression in E. coli"],
 "data": [
  ["MSNHIDRDVINALIAGHFADPFSVLGMHRTDAGLEVRALLPDATDVWVIEPKTGRKVGKLECLDSRGFFSGVLPRRKNAFRYQLAVTWHGQQNLIDDPYRFGPLLQ", "not soluble"],
  ["ESYAIFSLNAQFDALTINKARKLYRGKTRLLQGQRIELSDWPETSVERTEFYRYLLNKNLAQMNAHWASLSFSGKARPPKVIDQPSIEILLAWMREQPNRIGYAPVDSLPSDAHVLYVV", "not soluble"],
  ["MGSDKIHHHHHHMTEGWDALDAELEQWAAAGLRLPLWWRDDDAVTPTDALTRLEAMATRLDLPVHLAVIPKAAEDALAQHVSQSSHLIPVVHGWAHVNHANPDKKTCEFPSTRPVDEALTDAEQGVERLKHLFGARLQPMFVPPWNRISPAMLPWLAGLGFAAISTYGPRKRTQAASGLVQINTHIDPIDWKGGRGLMPEAQILQKLVANLQARRSGQQDNAEPLGLLTHHLVHTDEVWEFCDTLLRRLLEGPAHPWRFNERIN", "not soluble"]
]}

Source: the DeepSol protein solubility set
